Tested on: MDA-MB-435 melanoma
test: NCI-60 one-dose screen, 48 h (100 = growth as untreated, 0 = no growth, -100 = all killed)
assay conditions: 10 µM unless noted
This is part of a sample that, as a whole, favours compounds with a hit. Of some 83,000 tested, about 20% had one in any assay. Activity calls are given as the source filed them. The calls were made as follows: active = growth percent below 10; inactive = the rest.
Form field: growth (one value per entry).

Please review the following examples before continuing.
- OCCNCCCOc1ccc2ncnc(Nc3ccc(Oc4cccc(C(F)(F)F)c4)c(Cl)c3)c2c1: -65.2% (active)
- Nc1nc(=S)c2ncn(C3OC(COP(=O)(O)O)C(O)C3O)c2[nH]1 (stereo not drawn): 15.5% (inactive)
- CN(C)CCCC1(c2ccc(F)cc2)OCc2cc(-c3cncc4ccccc34)ccc21 (stereo not drawn): 8.32% (active)
- O=C1C(Cl)=C(Oc2ccccc2)C(=O)c2ccccc21: 108% (inactive)
- O=C1c2ccc3c4ccc5c6c(ccc(c7ccc(c2c37)C(=O)N1CCC[P+](c1ccccc1)(c1ccccc1)c1ccccc1)c64)C(=O)N(CCC[P+](c1ccccc1)(c1ccccc1)c1ccccc1)C5=O: 0.931% (active)
- Cn1cc(-c2csc(-c3ccc(Cl)cc3)n2)c2cccnc21: -6.61% [100 µM] (active)
- CCOC(=O)C(=Cc1cccc(Cl)c1)C(=O)OCC: 6.41% (active)

Could you now look at the following compound, please?
**Query** State the recorded growth for this entry: C=C(CNCCc1ccc(O)cc1)[C@@H]1CC[C@]2(CO)CC[C@]3(C)[C@H](CC[C@@H]4[C@@]5(C)CCC(NCCO)C(C)(C)[C@@H]5CC[C@]43C)[C@@H]12 (stereo partly drawn)
**Result** -92.1% (active)

---

System: SF-295 CNS
test: NCI-60 one-dose screen, 48 h (100 = growth as untreated, 0 = no growth, -100 = all killed)
assay conditions: 10 µM unless noted
The panel holds about 83,000 compounds, 20% with a hit somewhere; the sample as a whole holds those more often.
# growth values compiled below
Numbers only here, please. The scale is %.

Sample records with growth:
• CC1(c2ccccc2O)NN=C(/N=C/c2cccc([N+](=O)[O-])c2)N1C(Cc1c[nH]c2ccccc12)C(=O)O (centres undefined) = 107
• COc1cc(-c2nc3cc(Cl)c(Cl)cc3[nH]2)ccc1OCC(=O)N=Nc1c(O)[nH]c2ccc([N+](=O)[O-])cc12 = 101
• COC(=O)c1cc(-c2ccc(OC)cc2)[nH]c1N/N=C/c1c(Cl)cccc1Cl = -28.2
• C=CCn1cc(-c2nc3ccccc3s2)c2cc(-c3ccc4c5c(cccc35)C(=O)N(N)C4=O)ccc21 = 99.1
• CCOC(=O)C(=Cc1cccc(Br)c1)C(=O)OCC = 97

**Query** What measured growth is associated with Cc1cccc(N2CCN(CC(O)COc3ccc(Cl)cc3)CC2)c1 (centres undefined) on SF-295 CNS?
**Result** 82.3

**Query** Look up growth with SF-295 CNS for this molecule: O=C1N[C@@H]2NC(=[N+]3CCOCC3)N[C@@H]2N1
**Result** 99.9

**Query** Param readout= growth; system= SF-295 CNS; entry= COc1ccc(-c2ccc3cnc4sc(-c5ccc(OC)cc5)nc4c3n2)cc1 ; returns value.
**Result** 100

**Query** Any idea what growth came out for CCN(C(=O)N1CCN(c2cc3c(cc2F)c(=O)c(C(=O)O)cn3C2CC2)CC1)c1nc(-c2ccc(Cl)cc2)cs1 on SF-295 CNS?
**Result** -0.18
